- System: KM-20L2
- procedure text: Growth inhibition of human KM20L2 cells after 48 hrs by SRB assay
- Type: functional
- run parameters: KM-20L2, 48 h
*1 amine or outer side, *2 acyl side, *3 side chain or, on linkers, in order; H or OH if unused. Where a SMILES comes first, the peptide text is derived from it. [ ]: non-standard residue; d: D form. The star is where a group is joined. Dolaproine = CO[C@@H]([C@@H]1CCCN1)[C@@H](C)C(=O)O; Hexanoyl(6-maleimido) = O=C1C=CC(=O)N1CCCCCC(=O)*; Dil = CC[C@H](C)[C@H](NC)[C@@H](CC(=O)O)OC; PABC = O=C(OCc1ccc(N[*:1])cc1)[*:2]; Cit = NC(=O)NCCC[C@H](N)C(=O)O; NMeV = CN[C@H](C(=O)O)C(C)C; X1 = c1cnc2c(CCN*)cccc2c1; X2 = c1cc(CCN*)c2cccnc2c1; X3 = c1ccc2c(CCN*)ccnc2c1
reported property: GI50
Kindly format the answer as number then unit.

Would you please look over these solved cases?
| compound | GI50 |
| --- | --- |
| CC[C@H](C)[C@@H]([C@@H](CC(=O)N1CCC[C@H]1[C@H](OC)[C@@H](C)C(=O)NCCc1cccc2ncccc12)OC)N(C)C(=O)[C@@H](NC(=O)[C@H](C(C)C)N(C)C(=O)OCc1ccc(NC(=O)[C@H](CCCNC(N)=O)NC(=O)[C@@H](NC(=O)CCCCCN2C(=O)C=CC2=O)C(C)C)cc1)C(C)C ({Hexanoyl(6-maleimido)}-V[Cit][PABC][NMeV]V[Dil][Dolaproine]-X2) | 11.2 nM |
| CC[C@H](C)[C@@H]([C@@H](CC(=O)N1CCC[C@H]1[C@H](OC)[C@@H](C)C(=O)NCCc1ccnc2ccccc12)OC)N(C)C(=O)[C@@H](NC(=O)[C@@H](NC)C(C)C)C(C)C (H-[NMeV]V[Dil][Dolaproine]-X3) | 0.596 nM |
| CC[C@H](C)[C@@H]([C@@H](CC(=O)N1CCC[C@H]1[C@H](OC)[C@@H](C)C(=O)NCCc1cccc2ncccc12)OC)N(C)C(=O)[C@@H](NC(=O)[C@@H](NC)C(C)C)C(C)C (H-[NMeV]V[Dil][Dolaproine]-X2) | 0.582 nM |

Let's switch to this compound now.
Looking for the measured GI50 of CC[C@H](C)[C@@H]([C@@H](CC(=O)N1CCC[C@H]1[C@H](OC)[C@@H](C)C(=O)NCCc1cccc2cccnc12)OC)N(C)C(=O)[C@@H](NC(=O)[C@@H](NC)C(C)C)C(C)C (H-[NMeV]V[Dil][Dolaproine]-X1) , can you help?
0.203 nM

====

- Test system: MCF7
- procedure text: Growth inhibition of human MCF7 cells after 48 hrs by SRB assay
- Assay type: functional
- run parameters: MCF7, 48 h
*1 amine or outer side, *2 acyl side, *3 side chain or, on linkers, in order; H or OH if unused. Where a SMILES comes first, the peptide text is derived from it. [ ]: non-standard residue; d: D form. The star is where a group is joined. Dolaproine = CO[C@@H]([C@@H]1CCCN1)[C@@H](C)C(=O)O; Hexanoyl(6-maleimido) = O=C1C=CC(=O)N1CCCCCC(=O)*; Dil = CC[C@H](C)[C@H](NC)[C@@H](CC(=O)O)OC; PABC = O=C(OCc1ccc(N[*:1])cc1)[*:2]; Cit = NC(=O)NCCC[C@H](N)C(=O)O; NMeV = CN[C@H](C(=O)O)C(C)C; X2 = c1cc(CCN*)c2cccnc2c1; X3 = c1ccc2c(CCN*)ccnc2c1
reported property: GI50 (nM)
Reply numerically in nM, unit not repeated.

Would you please look over these solved cases?
| compound | GI50 [nM] |
| --- | --- |
| CC[C@H](C)[C@@H]([C@@H](CC(=O)N1CCC[C@H]1[C@H](OC)[C@@H](C)C(=O)NCCc1cccc2ncccc12)OC)N(C)C(=O)[C@@H](NC(=O)[C@@H](NC)C(C)C)C(C)C (H-[NMeV]V[Dil][Dolaproine]-X2) | 0.298 |
| CC[C@H](C)[C@@H]([C@@H](CC(=O)N1CCC[C@H]1[C@H](OC)[C@@H](C)C(=O)NCCc1ccnc2ccccc12)OC)N(C)C(=O)[C@@H](NC(=O)[C@H](C(C)C)N(C)C(=O)OCc1ccc(NC(=O)[C@H](CCCNC(N)=O)NC(=O)[C@@H](NC(=O)CCCCCN2C(=O)C=CC2=O)C(C)C)cc1)C(C)C ({Hexanoyl(6-maleimido)}-V[Cit][PABC][NMeV]V[Dil][Dolaproine]-X3) | 30.7 |

Let's switch to this compound now.
Looking for the measured GI50 of CC[C@H](C)[C@@H]([C@@H](CC(=O)N1CCC[C@H]1[C@H](OC)[C@@H](C)C(=O)NCCc1cccc2ncccc12)OC)N(C)C(=O)[C@@H](NC(=O)[C@H](C(C)C)N(C)C(=O)OCc1ccc(NC(=O)[C@H](CCCNC(N)=O)NC(=O)[C@@H](NC(=O)CCCCCN2C(=O)C=CC2=O)C(C)C)cc1)C(C)C ({Hexanoyl(6-maleimido)}-V[Cit][PABC][NMeV]V[Dil][Dolaproine]-X2) , can you help?
5.23

====

- Test system: MCF7
- procedure text: Growth inhibition of human MCF7 cells after 48 hrs by SRB assay
- Format: functional
- run parameters: MCF7, 48 h
*1 amine or outer side, *2 acyl side, *3 side chain or, on linkers, in order; H or OH if unused. Where a SMILES comes first, the peptide text is derived from it. [ ]: non-standard residue; d: D form. The star is where a group is joined. Dolaproine = CO[C@@H]([C@@H]1CCCN1)[C@@H](C)C(=O)O; Hexanoyl(6-maleimido) = O=C1C=CC(=O)N1CCCCCC(=O)*; Dil = CC[C@H](C)[C@H](NC)[C@@H](CC(=O)O)OC; PABC = O=C(OCc1ccc(N[*:1])cc1)[*:2]; Cit = NC(=O)NCCC[C@H](N)C(=O)O; NMeV = CN[C@H](C(=O)O)C(C)C; X1 = c1cnc2c(CCN*)cccc2c1; X3 = c1ccc2c(CCN*)ccnc2c1; X4 = c1ccc2nc(CCN*)ccc2c1
reported property: GI50 (nM)
Reply numerically in nM, unit not repeated.

Would you please look over these solved cases?
| molecule | system under test | GI50, nM |
| --- | --- | --- |
| CC[C@H](C)[C@@H]([C@@H](CC(=O)N1CCC[C@H]1[C@H](OC)[C@@H](C)C(=O)NCCc1ccnc2ccccc12)OC)N(C)C(=O)[C@@H](NC(=O)[C@@H](NC)C(C)C)C(C)C (H-[NMeV]V[Dil][Dolaproine]-X3) | MCF7 | 0.149 |
| CC[C@H](C)[C@@H]([C@@H](CC(=O)N1CCC[C@H]1[C@H](OC)[C@@H](C)C(=O)NCCc1cccc2cccnc12)OC)N(C)C(=O)[C@@H](NC(=O)[C@@H](NC)C(C)C)C(C)C (H-[NMeV]V[Dil][Dolaproine]-X1) | MCF7 | 0.06 |
| CC[C@H](C)[C@@H]([C@@H](CC(=O)N1CCC[C@H]1[C@H](OC)[C@@H](C)C(=O)NCCc1ccc2ccccc2n1)OC)N(C)C(=O)[C@@H](NC(=O)[C@@H](NC)C(C)C)C(C)C (H-[NMeV]V[Dil][Dolaproine]-X4) | MCF7 | 4.06 |
| CC[C@H](C)[C@@H]([C@@H](CC(=O)N1CCC[C@H]1[C@H](OC)[C@@H](C)C(=O)N[C@@H](Cc1ccccc1)c1nccs1)OC)N(C)C(=O)[C@@H](NC(=O)[C@H](C(C)C)N(C)C)C(C)C | MCF7 | 0.005 |

Let's switch to this molecule now.
I'm curious: which GI50 was measured for CC[C@H](C)[C@@H]([C@@H](CC(=O)N1CCC[C@H]1[C@H](OC)[C@@H](C)C(=O)NCCc1cccc2cccnc12)OC)N(C)C(=O)[C@@H](NC(=O)[C@H](C(C)C)N(C)C(=O)OCc1ccc(NC(=O)[C@H](CCCNC(N)=O)NC(=O)[C@@H](NC(=O)CCCCCN2C(=O)C=CC2=O)C(C)C)cc1)C(C)C ({Hexanoyl(6-maleimido)}-V[Cit][PABC][NMeV]V[Dil][Dolaproine]-X1) tested on MCF7?
15

====

- System: KM-20L2
- procedure text: Growth inhibition of human KM20L2 cells after 48 hrs by SRB assay
- Assay type: functional
- run parameters: KM-20L2, 48 h
*1 amine or outer side, *2 acyl side, *3 side chain or, on linkers, in order; H or OH if unused. Where a SMILES comes first, the peptide text is derived from it. [ ]: non-standard residue; d: D form. The star is where a group is joined. Dolaproine = CO[C@@H]([C@@H]1CCCN1)[C@@H](C)C(=O)O; Hexanoyl(6-maleimido) = O=C1C=CC(=O)N1CCCCCC(=O)*; Dil = CC[C@H](C)[C@H](NC)[C@@H](CC(=O)O)OC; PABC = O=C(OCc1ccc(N[*:1])cc1)[*:2]; Cit = NC(=O)NCCC[C@H](N)C(=O)O; NMeV = CN[C@H](C(=O)O)C(C)C; X1 = c1cnc2c(CCN*)cccc2c1; X3 = c1ccc2c(CCN*)ccnc2c1; X4 = c1ccc2nc(CCN*)ccc2c1
Parameter: GI50. Scope: all listed entries.
Reply numerically in nM, unit not repeated.

Would you please look over these solved cases?
| compound | test result |
| --- | --- |
| CC[C@H](C)[C@@H]([C@@H](CC(=O)N1CCC[C@H]1[C@H](OC)[C@@H](C)C(=O)NCCc1ccnc2ccccc12)OC)N(C)C(=O)[C@@H](NC(=O)[C@H](C(C)C)N(C)C(=O)OCc1ccc(NC(=O)[C@H](CCCNC(N)=O)NC(=O)[C@@H](NC(=O)CCCCCN2C(=O)C=CC2=O)C(C)C)cc1)C(C)C ({Hexanoyl(6-maleimido)}-V[Cit][PABC][NMeV]V[Dil][Dolaproine]-X3) | 38.9 |
| CC[C@H](C)[C@@H]([C@@H](CC(=O)N1CCC[C@H]1[C@H](OC)[C@@H](C)C(=O)N[C@@H](Cc1ccccc1)c1nccs1)OC)N(C)C(=O)[C@@H](NC(=O)[C@H](C(C)C)N(C)C)C(C)C [DOLASTATIN-10] | 0.01 |
| CC[C@H](C)[C@@H]([C@@H](CC(=O)N1CCC[C@H]1[C@H](OC)[C@@H](C)C(=O)NCCc1ccc2ccccc2n1)OC)N(C)C(=O)[C@@H](NC(=O)[C@@H](NC)C(C)C)C(C)C (H-[NMeV]V[Dil][Dolaproine]-X4) | 3.24 |

Let's switch to this compound now.
I'm curious: which GI50 was measured for CC[C@H](C)[C@@H]([C@@H](CC(=O)N1CCC[C@H]1[C@H](OC)[C@@H](C)C(=O)NCCc1cccc2cccnc12)OC)N(C)C(=O)[C@@H](NC(=O)[C@H](C(C)C)N(C)C(=O)OCc1ccc(NC(=O)[C@H](CCCNC(N)=O)NC(=O)[C@@H](NC(=O)CCCCCN2C(=O)C=CC2=O)C(C)C)cc1)C(C)C ({Hexanoyl(6-maleimido)}-V[Cit][PABC][NMeV]V[Dil][Dolaproine]-X1) tested on KM-20L2?
23.9
